Would you mind telling me the reported log10(AUC) of each entry?
Test: Pharmacokinetics of PEGylated protease inhibitor prodrugs in rats
Assay type: in vivo, male Sprague-Dawley rats
Details: male, Sprague-Dawley, rat, in vivo, prodrug in plasma, mean ± SD
Structures can show the parent of a compound that is named as a salt.
Recall that a logarithmic scale is used here: each number is log10 of AUC in ng·h/mL.

Q: For the compound shown here, COCCOCCOCCOCCOCCOC(=O)N[C@H](C(=O)N[C@@H](Cc1ccccc1)[C@H](CN(Cc1ccc(-c2ccccn2)cc1)NC(=O)[C@@H](NC(=O)OC)C(C)(C)C)OC(=O)CNC(=O)[C@@H](N)Cc1ccccc1)C(C)(C)C [Phe-Gly-mPEG5-Atazanavir HCl, Phe-Gly-mPEG5-Atazanavir Hydrochloride] , give the reported log10(AUC).
A: -0.47

Q: Next compound: COCCOCCOCCOCCOCCOC(=O)N[C@H](C(=O)N[C@@H](Cc1ccccc1)[C@H](CN(Cc1ccc(-c2ccccn2)cc1)NC(=O)[C@@H](NC(=O)OC)C(C)(C)C)OC(=O)[C@H](CC(C)C)NC(=O)[C@@H](N)Cc1ccccc1)C(C)(C)C [Phe-Leu-mPEG5-Atazanavir HCl, Phe-Leu-mPEG5-Atazanavir Hydrochloride]
A: 1.63

Q: # repeat for COCCOCCOCCOCCOCCOC(=O)N[C@H](C(=O)N[C@@H](Cc1ccccc1)[C@H](CN(Cc1ccc(-c2ccccn2)cc1)NC(=O)[C@@H](NC(=O)OC)C(C)(C)C)OC(=O)[C@H](CC(C)C)NC(=O)[C@@H](N)CC(C)C)C(C)(C)C.Cl [Leu-Leu-mPEG5-Atazanavir HCl, Leu-Leu-mPEG5-Atazanavir Hydrochloride]
A: 1.40

Q: Would you kindly repeat that for COCCOCCOCCOCCOCCOC(=O)N[C@H](C(=O)N[C@@H](Cc1ccccc1)[C@H](CN(Cc1ccc(-c2ccccn2)cc1)NC(=O)[C@@H](NC(=O)OC)C(C)(C)C)OC(=O)CNC(=O)[C@@H](N)C(C)C)C(C)(C)C [Val-Gly-mPEG5-Atazanavir HCl, Val-Gly-mPEG5-Atazanavir Hydrochloride] ?
A: 1.17

Q: Then what about the compound COCCOCCOCCOC(=O)N[C@H](C(=O)N[C@@H](Cc1ccccc1)[C@H](CN(Cc1ccc(-c2ccccn2)cc1)NC(=O)[C@@H](NC(=O)OC)C(C)(C)C)OC(=O)[C@H](Cc1ccccc1)NC(=O)[C@@H](N)CC(C)C)C(C)(C)C.Cl [Leu-Phe-mPEG3-Atazanavir, Leu-Phe-mPEG3-Atazanavir Hydrochloride] ?
A: 2.20

# evaluate next
Q: Entry under review: COCCOCCOCCOCCOCCOC(=O)N[C@H](C(=O)N[C@@H](Cc1ccccc1)[C@H](CN(Cc1ccc(-c2ccccn2)cc1)NC(=O)[C@@H](NC(=O)OC)C(C)(C)C)OC(=O)CNC(=O)[C@@H](N)CC(C)C)C(C)(C)C [Leu-Gly-mPEG5-Atazanavir HCl, Leu-Gly-mPEG5-Atazanavir Hydrochloride] . Reported log10(AUC)?
A: 0.18
